# Measured On: human ether-à-go-go-related gene (hERG) potassium channel (human, UniProt Q12809)
# Sequence (Q12809 whole entry, looked up): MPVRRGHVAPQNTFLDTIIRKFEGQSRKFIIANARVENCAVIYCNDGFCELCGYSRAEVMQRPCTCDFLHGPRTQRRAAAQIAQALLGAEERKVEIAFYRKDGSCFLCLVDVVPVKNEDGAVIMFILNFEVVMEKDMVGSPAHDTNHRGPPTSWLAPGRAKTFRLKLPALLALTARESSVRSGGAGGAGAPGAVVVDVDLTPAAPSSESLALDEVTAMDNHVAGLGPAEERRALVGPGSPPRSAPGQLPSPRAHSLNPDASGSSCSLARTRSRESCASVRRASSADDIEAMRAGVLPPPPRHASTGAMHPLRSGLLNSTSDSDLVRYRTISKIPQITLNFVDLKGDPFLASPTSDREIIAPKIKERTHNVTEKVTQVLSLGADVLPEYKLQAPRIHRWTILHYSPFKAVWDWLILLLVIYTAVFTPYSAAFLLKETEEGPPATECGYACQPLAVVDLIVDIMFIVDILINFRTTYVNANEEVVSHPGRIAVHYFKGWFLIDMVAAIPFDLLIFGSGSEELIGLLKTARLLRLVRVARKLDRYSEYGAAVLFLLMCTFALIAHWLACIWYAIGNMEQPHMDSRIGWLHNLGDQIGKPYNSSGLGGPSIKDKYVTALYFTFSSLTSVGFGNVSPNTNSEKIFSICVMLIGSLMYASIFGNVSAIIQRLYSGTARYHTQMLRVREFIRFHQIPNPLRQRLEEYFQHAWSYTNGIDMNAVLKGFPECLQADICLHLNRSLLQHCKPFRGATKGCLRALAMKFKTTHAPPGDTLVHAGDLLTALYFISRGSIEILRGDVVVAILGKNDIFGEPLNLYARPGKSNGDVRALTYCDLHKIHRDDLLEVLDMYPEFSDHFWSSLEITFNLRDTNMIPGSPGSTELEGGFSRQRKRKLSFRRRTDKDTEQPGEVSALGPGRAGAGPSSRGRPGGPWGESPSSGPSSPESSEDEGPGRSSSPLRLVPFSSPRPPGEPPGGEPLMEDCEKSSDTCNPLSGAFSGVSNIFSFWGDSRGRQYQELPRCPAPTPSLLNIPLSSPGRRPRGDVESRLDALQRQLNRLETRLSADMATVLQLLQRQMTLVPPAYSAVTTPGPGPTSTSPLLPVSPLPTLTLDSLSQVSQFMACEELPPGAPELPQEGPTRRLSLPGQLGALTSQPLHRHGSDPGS
# Assay Explanation: primary screen, population patch clamp on CHO cells stably expressing hERG; higher = less effect of the substance;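 further: peak tail current of the secondary pulse compared with the same well before compound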
Screen size: about 310,000 compounds; about 14,000 (4.5%) showed an effect of 50% or more. The effect is printed as a negative number. Many of the other results were omitted from the sample, so strong results are more common in it than they were.
Recorded hERG current change (%, negative = inhibition) at 10uM by entry
State the value, then name its unit.

These recorded examples may help you get a feel for the data.
INSERT INTO measurements (compound, experimental_value) VALUES
  ('CN1CCN(C(=O)c2ccc(CS(=O)Cc3ccc(Cl)cc3)o2)CC1 (stereo not shown)', '13.1%'),
  ('O=C1CC2(CCCCCC2)Oc2ccccc21', '-6.74%'),
  ('COc1ccc2c(c1OC)C(=O)OC2C1c2c(cc3c(c2OC)OCO3)CCN1C (stereo not shown)', '-1.42%'),
  ('O=C(c1ccc(CS(=O)c2ccccc2Cl)o1)N1CCN(c2ccccc2)CC1 (stereo not shown)', '-38.2%'),
  ('Cc1nc(-c2ccc(NC(=O)Cc3ccccc3)cc2)cs1', '21.1%'),
  ('O=C1CC2(CCN(C(=O)c3ccccc3Br)CC2)Oc2ccccc21', '-76.9%'),
  ('O=C(c1ccccc1F)N1CCC2(CC1)OCCO2', '30.8%'),
  ('CCN(CC)C(=O)COc1ccc(-c2ccccc2)cc1', '-36%'),
  ('N#Cc1nc(COc2ccccc2Cl)oc1NCc1cccnc1', '-51.2%'),
  ('Cc1ccc(CNc2oc(COc3ccccc3Cl)nc2C#N)cc1', '13.2%');

[ask] Specify measured hERG current change (%, negative = inhibition) at 10uM for CCN(CC(=O)NCc1ccc(Cl)cc1)C(=O)c1cc2ccccc2o1 .
[reply] -32.2%

[ask] Given O=C1CC2(CCN(C(=O)c3ccccc3F)CC2)Oc2ccccc21 , respond with its hERG current change (%, negative = inhibition) at 10uM.
[reply] -73.2%

[ask] Answer with the recorded hERG current change (%, negative = inhibition) at 10uM of COc1cccc(CN2CC(C(=O)NCCSc3nnnn3C)CCC2=O)c1 (stereo not shown) only.
[reply] 18%

[ask] Note down hERG current change (%, negative = inhibition) at 10uM recorded for COc1ccc(/C=N/NC(=O)c2ccc(CN3c4cccc5cccc(c45)S3(=O)=O)cc2)cc1
[reply] 4.03%

* * *

# Measured On: human ether-à-go-go-related gene (hERG) potassium channel (human, UniProt Q12809)
# Assay Explanation: primary screen, population patch clamp on CHO cells stably expressing hERG; higher = less effect of the substance
About 14,000 (4.5%) of roughly 310,000 compounds showed an effect of 50% or more. Effects have a minus sign here. What follows is part of a selection rich in strong results, with near analogues and random picks from the rest.
Each entry below carries its reported hERG current change (%, negative = inhibition) at 10uM.
Use % as the unit, but write only the number.

[ask] Indicate its recorded hERG current change (%, negative = inhibition) at 10uM; the molecule in question is COc1ccc(CCC(=O)NCCS(=O)(=O)N2CCN(c3ccc(F)cc3)CC2)cc1
[reply] -58.8

[ask] Could you please provide reported hERG current change (%, negative = inhibition) at 10uM for CCc1ccccc1NC(=O)N1CCCC(CCC(=O)N(C)CCc2ccccn2)C1 (stereo not drawn) ? Thanks!
[reply] 13.1

[ask] Give reported hERG current change (%, negative = inhibition) at 10uM value for CCCCNC(=O)CCn1nc(-c2ccccc2)ccc1=O
[reply] -40

[ask] Tell us which hERG current change (%, negative = inhibition) at 10uM value is on record for CCCCN(C)CCCNC(=O)CCn1nc(-c2ccccc2)ccc1=O
[reply] -52.9

[ask] Input COc1ccccc1CCNC(=O)C(=O)NCC1OCCN1S(=O)(=O)c1ccc(Br)cc1 (stereo not drawn) , output reported hERG current change (%, negative = inhibition) at 10uM.
[reply] -25.6

[ask] Report measured hERG current change (%, negative = inhibition) at 10uM; entry is O=C(Cn1nc(-c2ccccc2)ccc1=O)N1CCCCC1
[reply] -61.6

[ask] Supply recorded hERG current change (%, negative = inhibition) at 10uM for CCCc1nnc(NC(=O)CC(C)c2ccccc2)s1 (stereo not drawn) here.
[reply] 2.66

[ask] Return hERG current change (%, negative = inhibition) at 10uM (reported value) for this molecule: Cc1ccccc1CSCc1ccc(C(=O)NCCCN2CCOCC2)o1
[reply] -47.6

[ask] Give a short answer stating reported hERG current change (%, negative = inhibition) at 10uM for O=C(NCCN1CCOCC1)c1ccc(CSCc2cccc(Cl)c2)o1 .
[reply] -43.7

[ask] Look up and state reported hERG current change (%, negative = inhibition) at 10uM for CC(NC(=O)CN1c2cccc3cccc(c23)S1(=O)=O)c1ccc(S(N)(=O)=O)cc1 (stereo not drawn)
[reply] -25.1

[ask] Consider the molecule CC1CCCC(C)N1CCNC(=O)CCn1nc(-c2ccccc2)ccc1=O (stereo not drawn) and give its recorded hERG current change (%, negative = inhibition) at 10uM.
[reply] -46.8

[ask] Respond only with hERG current change (%, negative = inhibition) at 10uM recorded for CCN1CCC(Nc2ccnc3cc(Cl)ccc23)CC1
[reply] -40.5

[ask] Look up and report measured hERG current change (%, negative = inhibition) at 10uM for this entry: O=C(N/N=C/c1ccoc1)c1ccccc1Br
[reply] 16.9

[ask] Tell us which hERG current change (%, negative = inhibition) at 10uM value is on record for COCCNC(=O)c1ccc(CSCc2cccc(Cl)c2)o1
[reply] -7.69

[ask] Look up and state reported hERG current change (%, negative = inhibition) at 10uM for Cc1ccc(CSCC(=O)NCCCN2CCOCC2)cc1
[reply] 11.4
